From: paper PMC10397247

Molecular target: T1, 4H3590-AA
T1 chain: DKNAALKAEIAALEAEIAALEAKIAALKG
Experiment: two-hybrid library CCmax;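 further: natural log of median RNA to DNA barcode read ratio; higher means stronger binding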
Settings: mean of both orientations
Threshold 0.4. interaction score below it: t. interaction score at it or above: f.

These solved cases illustrate the format of a correct answer.
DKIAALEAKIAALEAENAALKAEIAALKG [4H2330-AA]; t
DEIAALEAKIAALEAKNAALEAKIAALKG [4H310-AA]; t
DEIAALEAENAALEAEIAALEAKIAALKG [4H134-AA]; f
DKNAALEAEIAALEAKNAALKAEIAALKG [4H3130-AA]; f
DENAALEAEIAALEAKIAALKAKIAALKG [4H1070-AA]; f
DENAALEAENAALEAKIAALKAEIAALEG [4H1193-AA]; f
DKNAALEAKIAALKAEIAALEAENAALEG [4H3395-AA]; f

Alright, here's another binder for you.
I wonder whether DKIAALEAEIAALEAKNAALKAKIAALEG [4H2109-AA] has interaction score below 0.4. Can you tell?
f
